# System: CCRF-CEM cells (TYK2-dependent T-ALL)
# assayNotes: Cell proliferation assay (ATPlite, 7 days)
# Assay type: cell-based
# testParameters: Homo sapiens, 168 h
experimentalEndpoint: IC50 (µM)

# example entries with known answers
compound | tgt | IC50 / µM
CC(=O)O[C@H]1C(=O)[C@@]2(C)[C@H]([C@H](OC(=O)c3ccccc3)[C@]3(O)C[C@H](OC(=O)[C@H](O)[C@@H](NC(=O)c4ccccc4)c4ccccc4)C(C)=C1C3(C)C)[C@]1(OC(C)=O)CO[C@@H]1C[C@@H]2O [Paclitaxel, reference compound] | CCRF-CEM cells (TYK2-dependent T-ALL) | 4.4
NC(=O)c1nc(-c2c(Cl)cccc2Cl)oc1Nc1ccc(C(=O)N2CCOCC2)cc1 | CCRF-CEM cells (TYK2-dependent T-ALL) | 1.8
CS(=O)(=O)c1ccc(Nc2oc(-c3c(F)cccc3Cl)nc2C(N)=O)cc1 | CCRF-CEM cells (TYK2-dependent T-ALL) | 8.9
C[C@@H]1C[C@H]2[C@@H]3CCC4=CC(=O)C=C[C@]4(C)[C@@]3(F)[C@@H](O)C[C@]2(C)[C@@]1(O)C(=O)CO [Dexamethasone, reference compound] | CCRF-CEM cells (TYK2-dependent T-ALL) | 59

1. NC(=O)c1nc(-c2c(F)cccc2Cl)oc1Nc1ccc(C(=O)N2CCOCC2)cc1
2. COc1cc([C@@H]2c3cc4c(cc3[C@@H](O[C@@H]3O[C@@H]5CO[C@@H](C)O[C@H]5[C@H](O)[C@H]3O)[C@H]3COC(=O)[C@H]23)OCO4)cc(OC)c1O [Etoposide, reference compound]
Asked: Between 1 and 2 , which one shows the larger IC50 value? // return label of chosen record
Given back: 2
(2: 17 µM, 1: 0.38 µM)

The measured values listed here are drawn from patent US20210401809A1.
